target: human GPR84 receptor (Homo sapiens, UniProt Q9NQS5); construct: frozen aliquots prepared by acCELLerate; assay: cAMP HTRF assay for identification of cellular GPR84 antagonists; conditions: CHO-K1 cells stably expressing human GPR84; Forskolin + agonist 6-OAU (EC80); average or median values
Sequence (Q9NQS5 whole entry): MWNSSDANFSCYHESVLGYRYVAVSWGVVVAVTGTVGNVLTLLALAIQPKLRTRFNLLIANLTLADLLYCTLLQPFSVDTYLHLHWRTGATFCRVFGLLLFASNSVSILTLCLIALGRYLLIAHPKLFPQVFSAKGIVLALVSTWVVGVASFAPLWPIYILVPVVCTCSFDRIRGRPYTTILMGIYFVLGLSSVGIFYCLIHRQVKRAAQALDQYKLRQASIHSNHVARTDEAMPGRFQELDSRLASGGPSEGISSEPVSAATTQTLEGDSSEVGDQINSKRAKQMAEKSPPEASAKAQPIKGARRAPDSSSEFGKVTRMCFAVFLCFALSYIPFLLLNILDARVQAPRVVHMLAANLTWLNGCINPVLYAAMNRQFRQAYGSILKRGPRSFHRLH
Here the recorded pIC50 is given for each entry.
// pIC50: -log10(molar conc.)

Here is how some compounds turned out for pIC50.
Cc1ccc(Cn2cc3c(n2)-c2c(oc(C(=O)NC[C@@H]4CCCO4)c2C(F)(F)F)CC32CCC2)nc1 [Example 277] | 8.10
Cc1c(C(=O)NCC2CC(C)CO2)oc2c1-c1nn(C[C@H]3COCCO3)cc1C1(CC1)C2 (mixture of isomers) [Example 199] | 7.10
O=C(NCc1cocn1)c1oc2c(c1C(F)(F)F)-c1nn(C[C@H]3COCCO3)cc1CC2 [Example 239] | 6.87
O=C(NC[C@@H]1CCCO1)c1oc2c(c1C(F)(F)F)-c1nn(Cc3ccccn3)cc1C1(CC1)C2 [Example 218] | 8.05
Cc1c(C(=O)NCC2CC(F)(F)CO2)oc2c1-c1nn(Cc3ccccn3)cc1CC2 (racemic) [Example 174] | 7.01

Suppose we examine the compound Cc1c(C(=O)NCC2CCCO2)oc2c1-c1nn(CC3COc4ncccc4O3)cc1CC2 (single isomer, unassigned) [Example 52-2] ; what pIC50 value has been reported?
7.80

Suppose we examine the compound CC(=O)N1CCC(Cn2cc3c(n2)-c2c(oc(C(=O)NC[C@@H]4CCCO4)c2C(F)(F)F)CC3)CC1 [Example 305] ; what pIC50 value has been reported?
7.80

Suppose we examine the compound CC1(C)CC[C@H](CNC(=O)c2oc3c(c2C(F)(F)F)-c2nn(C[C@H]4COCCO4)cc2CC3)O1 (single isomer, unassigned) [Example 223-1] ; what pIC50 value has been reported?
7.92

Suppose we examine the compound Cc1c(C(=O)NC[C@@H]2CCCO2)oc2c1-c1nn(C[C@H]3COCCO3)cc1C(C(F)(F)F)C2 (mixture of isomers) [Example 266] ; what pIC50 value has been reported?
6.22

Suppose we examine the compound Cc1c(C(=O)Nc2cccnc2)oc2c1-c1nn(Cc3ccccn3)cc1CC2 [Example 41] ; what pIC50 value has been reported?
5.27

Suppose we examine the compound Cc1cnc(CNC(=O)c2oc3c(c2C(F)(F)F)-c2nn(C[C@H]4COCCO4)cc2[C@H](C)C3)nc1 (single isomer, unassigned) [Example 303] ; what pIC50 value has been reported?
8.22

###

Here the recorded pIC50 is given for each entry.
target: human GPR84 receptor (Homo sapiens); construct: frozen aliquots prepared by acCELLerate; experiment: cAMP HTRF assay for identification of cellular GPR84 antagonists; conditions: CHO-K1 cells stably expressing human GPR84; Forskolin + agonist 6-OAU (EC80); average or median values
// pIC50: -log10(molar conc.)

Cc1c(C(=O)NCc2ncon2)oc2c1-c1nn(Cc3ccccn3)cc1CC2 | 5.85
Cc1ncc(CNC(=O)c2oc3c(c2C(F)(F)F)-c2nn(C[C@H]4COCCO4)cc2[C@H](C)C3)cn1 (single isomer, unassigned) | 5.82
Cc1c(C(=O)NC[C@@H]2CCCO2)oc2c1-c1nn(C[C@H]3COCCO3)cc1C(C)C2 (mixture of isomers) | 6.91
Cc1c(C(=O)NCC2CCC(=O)O2)oc2c1-c1nn(Cc3ccccn3)cc1CC2 (racemic) [Example 39] | 6.02
Cc1c(C(=O)NC[C@@H]2COCCO2)oc2c1-c1nn(CCN3CCN(C(=O)OC(C)(C)C)CC3)cc1CC2 | 6.17
Cc1c(C(=O)NC[C@H]2CCCO2)oc2c1-c1nn(Cc3ccccn3)cc1CC2 | 5.94
Cc1c(C(=O)NC[C@H]2COCCO2)oc2c1-c1nn(CC3CC3)cc1C1(CC1)C2 | 5.89
Cc1ccc(Cn2cc3c(n2)-c2c(oc(C(=O)NC[C@@H]4COCCO4)c2C(F)(F)F)CC3)cn1 | 8.10
Cc1ncccc1Cn1cc2c(n1)-c1c(oc(C(=O)NC[C@@H]3CCCO3)c1C)CC2 | 6.85
COCC(=O)N1CCC(Cn2cc3c(n2)-c2c(oc(C(=O)NC[C@@H]4COCCO4)c2C(F)(F)F)CC3)CC1 | 6.86

Suppose we examine the compound Cc1c(C(=O)NCC2CC3(CC3)CO2)oc2c1-c1nn(Cc3ccccn3)cc1CC2 (racemic) ; what pIC50 value has been reported?
7.04

Suppose we examine the compound Cc1c(C(=O)NCc2ncco2)oc2c1-c1nn(Cc3ccccn3)cc1CC2 ; what pIC50 value has been reported?
6.82

Suppose we examine the compound C[C@@H]1Cc2oc(C(=O)NCc3ccn(C)n3)c(C(F)(F)F)c2-c2nn(C[C@H]3COCCO3)cc21 (single isomer, unassigned) ; what pIC50 value has been reported?
7.60

Suppose we examine the compound Cc1c(C(=O)NC[C@@H]2CCCO2)oc2c1-c1nn(CC3CC3)cc1C1(CC1)C2 ; what pIC50 value has been reported?
7.26

Suppose we examine the compound Cc1c(C(=O)NC[C@@H]2COCCO2)oc2c1-c1nn(C[C@H]3CN(C)CCO3)cc1CC2 ; what pIC50 value has been reported?
6.12

###

target: human GPR84 receptor (Homo sapiens); construct: frozen aliquots prepared by acCELLerate; experiment: cAMP HTRF assay for identification of cellular GPR84 antagonists; settings: CHO-K1 cells stably expressing human GPR84; Forskolin + agonist 6-OAU (EC80); average or median values
Here the recorded IC50 is given for each entry.
Return type: number; implicit unit nM.

Here is how some compounds turned out for IC50.
O=C(NC[C@@H]1CCCO1)c1oc2c(c1C(F)(F)F)-c1nn(Cc3ccncc3)cc1C1(CC1)C2 | 6
Cc1c(C(=O)NC[C@@H]2CCCO2)oc2c1-c1nn(Cc3cc(F)ccn3)cc1CC2 | 168
Cc1c(C(=O)NC[C@@H]2CCCO2)oc2c1-c1nn(CC3CC3)cc1CC2 | 97
O=C(NCc1nccs1)c1oc2c(c1C(F)(F)F)-c1nn(C[C@H]3COCCO3)cc1CC2 | 16
O=C(NC[C@@H]1CCCO1)c1oc2c(c1C(F)(F)F)-c1nn(CC3CCN(CC4CC4)CC3)cc1CC2 | 62
Cc1c(C(=O)NC[C@@H]2CCCO2)oc2c1-c1nn(C[C@@H]3CCO3)cc1CC2 | 210
Cc1c(C(=O)NC[C@@H]2CCCO2)oc2c1-c1nn(Cc3ccccn3)cc1CC2 | 110

# next compound below
Suppose we examine the compound Cc1c(C(=O)NC[C@@H]2COCCO2)oc2c1-c1nn(Cc3ccccn3)cc1C1(CC1)C2 ; what IC50 value has been reported?
11

###

biological target: human GPR84 receptor (Homo sapiens, UniProt Q9NQS5); construct: frozen aliquots prepared by acCELLerate; host or cells: CHO-K1; experiment: cAMP HTRF assay for identification of cellular GPR84 antagonists; type: cell-based; settings: CHO-K1 cells stably expressing human GPR84; Forskolin + agonist 6-OAU (EC80); average or median values
Response field label: string, one of t (IC50 strictly below 30 nM) or f.

Answered examples (4):
Cc1c(C(=O)NCC2CC3(CC3)CO2)oc2c1-c1nn(C[C@H]3COCCO3)cc1C1(CC1)C2 (mixture of isomers) | f
O=C(NC[C@@H]1CCCO1)c1oc2c(c1C(F)(F)F)-c1nn(CC3CCOCC3)cc1CC2 | t
Cc1c(C(=O)NC[C@@H]2COCCO2)oc2c1-c1nn(C[C@@H]3COCCO3)cc1CC2 | f
Cc1ccc(Cn2cc3c(n2)-c2c(oc(C(=O)NC[C@@H]4CCCO4)c2C)CC3)nc1 | t

Please let me know if C[C@@H]1Cc2oc(C(=O)NCc3cocn3)c(C(F)(F)F)c2-c2nn(C[C@H]3COCCO3)cc21 (single isomer, unassigned) shows IC50 below 30 nM.
f

Please let me know if Cc1c(C(=O)NC[C@@H]2COCCO2)oc2c1-c1nn(Cc3cccnn3)cc1CC2 shows IC50 below 30 nM.
f

Please let me know if Cc1c(C(=O)NC[C@@H]2CCCO2)oc2c1-c1nn(CCNC(=O)OC(C)(C)C)cc1CC2 shows IC50 below 30 nM.
f

Please let me know if O=C(NC[C@@H]1COCCO1)c1oc2c(c1C1CC1)-c1nn(Cc3ccccn3)cc1CC2 shows IC50 below 30 nM.
f

Please let me know if Cc1c(C(=O)NCc2cc(C3CC3)on2)oc2c1-c1nn(CC3COc4ncccc4O3)cc1CC2 (single isomer, unassigned) [Example 50-1] shows IC50 below 30 nM.
f

Please let me know if C[C@@H]1Cc2oc(C(=O)NC[C@@H]3CCCO3)c(C(F)(F)F)c2-c2nn(CC3CCOCC3)cc21 shows IC50 below 30 nM.
t

Please let me know if O=C(NC[C@@H]1CCCO1)c1oc2c(c1C(F)(F)F)-c1nn(CC3CCN(C(=O)c4ccccc4)CC3)cc1CC2 shows IC50 below 30 nM.
f

Please let me know if C[C@@H]1Cc2oc(C(=O)NCc3cnc(C4CC4)cn3)c(C(F)(F)F)c2-c2nn(C[C@H]3COCCO3)cc21 (single isomer, unassigned) shows IC50 below 30 nM.
t
